System: hEHM (human engineered heart muscle)
Assay: Isometric force of contraction and twitch kinetics of hEHM
Assay type: cell-based
Conditions: increasing extracellular calcium; n=17

Smiles Structure	Units Text	EC50
[Ca+2]	µM	800

Source: patent US11492594B2
